I'd be grateful if you could share measured PDI for these entries.
- assay_summary: Dimensions (size, PDI) of DNPs co-assembled from IAJDs and Luc-mRNA by DLS
- Format: physicochemical
- details: Table 12; DNPs, IAJD 4 mg/mL + Luc-mRNA 0.10 mg/mL, acetate buffer 10 mM pH 4.0
Lab note: record just the number, no unit beside it.

In: Give the measured PDI for `CCCCCCCCCCCCOc1cc(COC(=O)CCCN2CCN(CCO)CC2)cc(OCCCCCCCCCCCC)c1`
Out: 0.451

In: Give the measured PDI for `CCCCCCCCCCCCOCC(COCCCCCCCCCCCC)(COCCCCCCCCCCCC)COC(=O)CCCN1CCN(C)CC1`
Out: 0.144

In: Give the measured PDI for CCCCC(CC)COc1cc(COC(=O)CCCN2CCN(C)CC2)cc(OCC(CC)CCCC)c1 (centres unmarked)
Out: 0.287

In: Give the measured PDI for `CCCCCCCCCCCCCCOc1cc(CNC(=O)CCCN2CCN(C)CC2)cc(OCCCCCCCCCCCCCC)c1`
Out: 0.334

In: Give the measured PDI for `CCCCCCCCCCCCCCCCCCOc1cc(COC(=O)CCCN2CCN(C)CC2)cc(OCCCCCCCCCCCC)c1`
Out: 0.279

In: Give the measured PDI for `CCCCCCCCOc1cc(COC(=O)CCCN2CCN(CCO)CC2)cc(OCCCCCCCC)c1`
Out: 0.467

In: Give the measured PDI for CCCCC(CC)COc1cc(COC(=O)CCCN2CCN(C)CC2)cc(OCC(CC)CCCC)c1OCC(CC)CCCC (centres unmarked)
Out: 0.402

In: Give the measured PDI for `CCCCCCCCCCCCCCOc1cc(COC(=O)CCCN2CCN(C)CC2)cc(OCCCCCCCCCCC)c1`
Out: 0.294
